Assay: Toxicity liver stage against HepG2, at 10uM
Type: cell-based
Parameters: test concentration 10 uM, cell line HepG2-A16-CD81EGFP
Settings: human, HepG2-A16-CD81EGFP cells; read-out: INHIBITION
measure: cytotoxicity at 10 µM (%)
Record the value in %, omitting the unit from your answer.

Solved entries (count: 3):
Problem: Would you kindly share the measured cytotoxicity at 10 µM for COC1CCCN(c2nc(C)nc3c2CCN(Cc2ccco2)CC3)C1 (stereo not drawn) ?
Solution: 2.02

Problem: // returns reported cytotoxicity at 10 µM for input CCCc1cc(=O)[nH]c(-c2cccc(CN3CCN4CCCC4C3)c2)n1 (stereo not drawn)
Solution: -15.2

Problem: Find the recorded cytotoxicity at 10 µM belonging to O=C(C1CCCN(Cc2ccccc2)C1)N1CCc2sccc2C1 (stereo not drawn) and report it.
Solution: 2.41

Next:
Problem: Dear colleague, I am looking for the recorded cytotoxicity at 10 µM of the following compound: `CC(=O)NCC1CCN(C(=O)c2c[nH]c3cc(Cl)ccc23)CC1`
Solution: 7.07

Problem: Consider the compound `Cc1nn2c(-c3cnn(C)c3)nnc2s1` and give its measured cytotoxicity at 10 µM.
Solution: -15.4

Problem: What does the data say about its cytotoxicity at 10 µM? Entry: `CCOc1ccccc1-c1cc2c(cc1C(N)=O)OCO2`
Solution: 5.05

###

Assay: Toxicity liver stage against HepG2, at 10uM
Type: cell-based
Parameters: test concentration 10 uM, cell line HepG2-A16-CD81EGFP
Conditions: human, HepG2-A16-CD81EGFP cells; read-out: INHIBITION
measure: cytotoxicity at 10 µM (%)
Kindly provide the numeric value in % only, without the unit symbol.

Before answering, review these 5 worked examples.
Problem: Look at this compound and give its reported cytotoxicity at 10 µM. Cn1cc(CNC(=O)C2CCCN(Cc3cccc(F)c3)C2)cn1 (stereo unspecified)
Solution: 3.44

Problem: Consider the compound shown here: O=C(CCn1c(=O)oc2ccccc21)NCC(O)c1ccccc1 (stereo unspecified) What is its recorded cytotoxicity at 10 µM?
Solution: -15.6

Problem: What value of cytotoxicity at 10 µM has been reported for the following compound? `CN(Cc1cncnc1)[C@@H]1CN(C(=O)c2ccco2)[C@@H]2CCCO[C@H]12`
Solution: -113

Problem: # input compound: `CCc1nnc2n1CCN(C(=O)c1cc(Cl)c[nH]1)C2` ; wanted: its cytotoxicity at 10 µM
Solution: -6.1

Problem: Fill blank: measured cytotoxicity at 10 µM of the compound CCOC1CC2(CCN(CCO)CC2)c2ccc(C)cc21 (stereo unspecified) is ____.
Solution: 9.01

Now turn to the next compound.
Problem: Look up cytotoxicity at 10 µM: `CC(C)(O)CN1CCN(C(=O)COCc2ccccc2Cl)CC1`
Solution: -4.72

###

Experiment: Toxicity liver stage against HepG2, at 10uM
Format: cell-based
Set-up: test concentration 10 uM, cell line HepG2-A16-CD81EGFP
Details: human, HepG2-A16-CD81EGFP cells; read-out: INHIBITION
Below, each entry is listed alongside its reported cytotoxicity at 10 µM.
Express your answer in %, writing the number without its unit.

Problem: # lookup: cytotoxicity at 10 µM of `COCC(=O)Nc1ccccc1Sc1c(C)n[nH]c1C`
Solution: -10.2

Problem: Param item = `Cc1cccc(C)c1CCNC(=O)N1CCCC2(C1)OCCO2` ; retrieve measured cytotoxicity at 10 µM.
Solution: -3.47

Problem: Give its cytotoxicity at 10 µM value. Item: `Cc1nnc([C@]23COC[C@H]2CN(S(=O)(=O)c2cccnc2)C3)o1`
Solution: -97.8

Problem: Which cytotoxicity at 10 µM reading was recorded for the molecule CCOCCN1CCN(Cc2nc(C)no2)CC1CC (centres undefined) ?
Solution: 13.1

Problem: Fill in: cytotoxicity at 10 µM of CCS(=O)(=O)N1CCC2(CC(=O)N(c3cnn(C)c3)C2)C1 (centres undefined) is ___
Solution: 6.92

Further cases:
Problem: Can you look up the measured cytotoxicity at 10 µM of `O=C(CCOc1ccccc1F)N1CCOCC1` for me?
Solution: -4.4

Problem: I would be grateful if you could share the reported cytotoxicity at 10 µM for `Cc1nn(C)c2cnn(Cc3ccc(C(=O)N4CCCCC4)o3)c12` .
Solution: 11.3

Problem: Please report the recorded cytotoxicity at 10 µM for `CCc1nnc2n1CCN(Cc1noc(-c3cccc(C)c3)n1)C2` .
Solution: 12

Problem: Query (molecule): `CN(CC(F)(F)F)C(=O)CNC(=O)Cc1ccc(O)cc1Cl` ; field requested: cytotoxicity at 10 µM
Solution: -1.11

Problem: So what's the measured cytotoxicity at 10 µM for this one? `COc1ccc(OC)c(-c2nc(CN(C)Cc3noc(C)n3)c(C)o2)c1`
Solution: -3.7

Problem: Requested read-out: cytotoxicity at 10 µM. Entry: `Cc1ncsc1C(=O)N(Cc1ccccc1)C1CC1`
Solution: -6.48

Problem: GET /values?readout=cytotoxicity at 10 µM&item= Cc1noc(CNc2cccc(C(=O)N3CCCC(O)C3)c2)n1 (centres undefined)
Solution: -0.961
